- test protocol: CCTE_Shafer_MEA_dev_AB: CCTE's Alamar Blue Assay for Cytotoxicity in the Neural Network Formation Assay, Shafer Lab (AID 2284083);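 note: resazurin reduction fluorescence as viability of cultured neurons; twelve days of exposure from plating with re-dosing on DIV 5 and 9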
- Procedure: CCTE_Shafer_MEA_dev assay is conducted using Axion Biosystems 48 well microelectrode array (MEA) plates and Maestro recording system. Each well of the MEA plate contains a grid of 16 microelectrodes embedded in the culture surface. Electrically active cells, such as neurons, can be cultured over the electrodes, and electrical activity in these cells can be recorded extracellularly. […]
Inconclusive results are not listed. The source made the active and inactive calls. Rule for the calls: active = hit-call score of the fitted dose curve at least 0.9, where 1 is the maximum; inconclusive = response in the unintended direction; inactive = score below 0.9.
Classes used: T (active), F (inactive)

compound=O=C(O)C(F)(F)C(F)(F)C(=O)O assigned_class=F
compound=C=CC(=O)OCC(F)(F)C(F)F assigned_class=T
compound=CCOc1ccc(C(C)(C)COCc2cccc(Oc3ccccc3)c2)cc1 assigned_class=T
compound="CCCCC(CC)COP(=O)(Oc1ccccc1)Oc1ccccc1 (configuration not stated)" assigned_class=F
compound="CC(O)C(F)(F)C(F)(F)F (configuration not stated)" assigned_class=F
compound="CCC1(c2ccccc2)C(=O)N=C(O)NC1=O (configuration not stated)" assigned_class=F
compound="ClC1=C(Cl)C2(Cl)C3C(Cl)C(Cl)CC3C1(Cl)C2(Cl)Cl (configuration not stated)" assigned_class=T
